tested on: 786-0; assay: NCI tumour cell line growth inhibition, 48 h
The source made the active and inactive calls. Cut-off read from the data, not from the text of the source: active = GI50 up to about 1.1 µM and inactive = higher.
Outcome codes: yes (active), no (inactive)

Nc1c(C(=O)c2ccccc2)nnc2ccccc12	no
Cc1cc(C)c2c(n1)S(=O)(=O)N(CCCN1CCN(c3cccc(C(F)(F)F)c3)CC1)C(C(=O)c1ccc(Cl)cc1)=C2O	no
CCCCC(C(=O)N/N=C/c1ccc([N+](=O)[O-])o1)C(=O)N/N=C/c1ccc([N+](=O)[O-])o1	no
O=C(CCN1CCOCC1)Nc1ccc2sc3ccccc3c(=O)c2n1	no
C(=C/c1ccc2nc(-c3ccc(/C=C/C=N/NC4=NCCCN4)cc3)cn2c1)/C=N/NC1=NCCCN1	no
COC(=O)c1csc([C@@H](OC(=O)[C@H](C)[C@H](CCCC(C)(Cl)Cl)OC(=O)c2csc([C@H](O)CO)n2)C(C)C)n1	no
C[C@@H]1OC(=O)C[C@H]2CC(=O)N(CCC3CN(C(=O)c4ccccc4)c4ccccc43)C[C@@H]21 (stereo partly specified)	no
CCOC(OC1=C(C#N)CCCC1)C(CC)[Se]c1ccccc1[N+](=O)[O-] (stereo unspecified)	no
Cn1c(=O)c2c(no[n+]2[O-])n(C)c1=O	no
C=C1C(=O)OC2C1CCC(C)C1C=CC(=O)C12C (stereo unspecified)	no
CN(C1=NS(=O)(=O)N=C(N(C)c2ccccc2)O1)c1ccccc1	no
CC[C@H]1C=CCC[C@@]2(C[C@@H]3CC[C@@H]4[C@H](C(=O)OCCCCCCCCCCCCCCCC(=O)N(CCCNC(C)=O)C[C@H](CCNC(C)=O)OC(C)=O)[C@]5(CCC[C@@H](C)O5)NC(=[N+]34)N2)O1	yes
Cc1cccc(C2NC(=O)c3ccccc3N2)c1 (stereo unspecified)	no
C=C1C(O)CC[C@]2(C)C1C1OC(C)(C)O[C@]13CC(=O)C(C)=C([C@H]1OC(C)(C)OC12)C3(C)C (stereo partly specified)	no
COc1ccc(C2(CC(C)O)SCCCS2)cc1 (stereo unspecified)	no
Cc1ccc(S(=O)(=O)n2cc(-c3cc(C(F)(F)F)ccn3)c3cc(Br)ccc32)cc1	no
COc1ccc(S(=O)(=O)N/N=C(\C)CN2C(=O)c3ccccc3C2=O)cc1	no
CCCCCCCCCCCCCCCCOCC(COP(=O)(O)OCC1OC(n2cc(CC)c(=O)[nH]c2=O)CC1O)OC(=O)CCCCCCCCCCCCCCC (stereo unspecified)	no
Cc1cc(N(CCC#N)CCC#N)ccc1/N=N/c1cccc(C(=O)O)c1	no
COc1ccc(N2C(=O)C3c4[nH]c5ccccc5c4C4CCC(C(C)(C)C)CC4C3C2=O)c(C)c1 (stereo unspecified)	no
O=[N+]([O-])c1cccc(-c2oc(/C=N/c3ccccc3)c([N+](=O)[O-])c2-c2cccc([N+](=O)[O-])c2)c1	no
O=c1[nH]n(Cc2ccccc2)c2ccc([N+](=O)[O-])cc12	no
COc1ccc(-c2cc(-c3cc4cc(Br)ccc4nc3Cl)c(C#N)c(N)n2)cc1	no
CC[C@@H](/C=C\CCC1(C[C@H](O)CCC=C(C)C)OCCO1)O[Si](C(C)C)(C(C)C)C(C)C	no
O=C1CCCC(O)=C1SC1=C(O)CCCC1=O	no
[N-]=[N+]=NC1(c2ccccc2)C(=O)c2cccc3c2N(CCC3)C1=O (stereo unspecified)	no
